Where do the numbers come from? From PubChem BioAssay AID1159580.

Assay: chemical genetic growth profiling, strain panel (AID 1159580);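 note: tested at 20 µM; growth read once vehicle control cultures reached saturation at 30 °C; 1 = growth at the plate median or of vehicle wells; lower values mean less growth of the strain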
Conditions: S. cerevisiae deletion strains, growth OD, locus YDR159W, strain sac3
Hit rate of the full screen: of about 5,500 compounds, about 2,000 (36%) were called active. Roughly 18% stayed inconclusive and do not appear here. Cut-off read from the data, not from the text of the source: active = normalized growth mostly below about 0.91 (no sharp cut-off); inconclusive = no clear call, values can overlap the other calls; inactive = mostly above about 0.92. The list shows a part of the results.
Classes used: active, inactive

INSERT INTO results (compound, qualitative_label) VALUES
  ('OC[C@H]1O[C@@H](O[C@H]2[C@H](O)[C@@H](O)[C@@H](O)O[C@@H]2CO)[C@H](O)[C@@H](O)[C@@H]1O', 'inactive'),
  ('COC(=O)c1c(OC)cc2c(c1C)Oc1c(Cl)c(O)c(Cl)c(C)c1C(=O)O2', 'inactive'),
  ('C[C@H](CCC(=O)O)[C@H]1CCC2C3C(=O)CC4CC(=O)CC[C@]4(C)C3CC(=O)[C@@]21C (some centres undefined)', 'inactive'),
  ('CC(=O)O[C@@H]1CC2C(C)(C)[C@H](O)C=C[C@]2(C)C2CC[C@]3(C)C(=CC(=O)O[C@H]3c3ccoc3)[C@@]21C (some centres undefined)', 'inactive'),
  ('CC(CCC(=O)O)[C@H]1CCC2C3CC[C@@H]4C[C@H](O)CC[C@]4(C)C3C=C[C@@]21C (some centres undefined)', 'inactive'),
  ('CC12CCC(=O)C=C1CCC1C2[C@@H](O)CC2(C)C1CC[C@]2(O)C(=O)COP(=O)(O)O (some centres undefined)', 'inactive'),
  ('Cc1scc2c1N(C(=O)CN1CCN(C)CC1)c1ccccc1NC2=O', 'inactive'),
  ('CC(=O)O[C@H]1CC[C@@]2(C)C(C[C@@H](OC(C)=O)[C@@]3(C)C4=CC(=O)O[C@@H](c5ccoc5)[C@]4(C)CCC23)C1(C)C (some centres undefined)', 'inactive'),
  ('OC[C@H]1O[C@@H](O[C@@H]2[C@@H](CO)O[C@](O)(CO)[C@H]2O)[C@H](O)[C@@H](O)[C@H]1O', 'inactive'),
  ('Oc1c(Cl)cc(Cl)cc1Sc1cc(Cl)cc(Cl)c1O', 'active'),
  ('CC1(C)CC2C1CC[C@]1(C)CCC3C(C(=O)O)CC(=O)O[C@@]32C1 (some centres undefined)', 'inactive'),
  ('CCN(CC)CCOC(=O)C1(C2CCCCC2)CCCCC1', 'inactive'),
  ('NS(=O)(=O)c1cc2c(cc1Cl)NC(CSCc1ccccc1)=NS2(=O)=O', 'inactive'),
  ('COC(=O)c1c(C)c2c(c(C)c1O)OC(=O)c1c(C)c(Cl)c(O)c(Cl)c1O2', 'inactive'),
  ('O=C(O)c1cccnc1', 'inactive'),
  ('COc1cc(C/C=C/c2ccccc2)c(OC)cc1O', 'inactive'),
  ('NC1=NCCN1CC(=O)O', 'inactive'),
  ('CCCN(CCC)S(=O)(=O)c1ccc(C(=O)O)cc1', 'inactive'),
  ('CCN(CC)CCOCCOC(=O)C1(c2ccccc2)CCCC1', 'inactive');

* * *

Assay: chemical genetic growth profiling, strain panel (AID 1159580);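 note: tested at 20 µM; growth read once vehicle control cultures reached saturation at 30 °C; 1 = growth at the plate median or of vehicle wells; lower values mean less growth of the strain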
Details: S. cerevisiae deletion strains, growth OD, locus YNL322C, strain KRE1, active compounds read low
Among all 5,500 compounds or so, about 2,000 (36%) were called active. Inconclusive results (about 18%) are left out. The list shows a part of the results.
Under this convention, satisfied denotes normalized growth strictly below 1 and not satisfied denotes normalized growth at or above 1.

INSERT INTO assay_data (molecule, qualitative_label) VALUES
  ('NC(=S)CSc1ccccc1', 'not satisfied'),
  ('C[N+]1(C)CCC(OC(=O)C(c2ccccc2)c2ccccc2)CC1', 'satisfied'),
  ('c1ccc(-c2nc(-c3cccs3)cs2)cc1', 'satisfied'),
  ('COc1ccc2cc(CCC(C)=O)ccc2c1', 'satisfied'),
  ('O=C(O)CSC1CCS(=O)(=O)C1 (centres undefined)', 'not satisfied'),
  ('Cc1onc(-c2c(Cl)cccc2Cl)c1NC(=O)O/N=C\c1ccc(N(C)C)cc1', 'satisfied'),
  ('Clc1ccc(Sc2ncnc3ccsc23)cc1', 'satisfied'),
  ('Cc1cccc(Cn2nc(C(C)(C)C)cc2C(=O)O)c1', 'satisfied'),
  ('NCC(=O)c1ccccc1', 'not satisfied'),
  ('O=C1N(c2ccccc2)c2ccccc2C1(Cc1ccncc1)Cc1ccncc1', 'not satisfied'),
  ('COc1ccc([C@@H]2Sc3ccccc3N(CCN(C)C)C(=O)[C@@H]2OC(C)=O)cc1', 'satisfied'),
  ('O=[N+]([O-])c1ccc(N2CCOCC2)cc1', 'satisfied');

* * *

// values below are reported normalized growth
Assay: chemical genetic growth profiling, strain panel (AID 1159580);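 note: tested at 20 µM; growth read once vehicle control cultures reached saturation at 30 °C; 1 = growth at the plate median or of vehicle wells; lower values mean less growth of the strain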
Conditions: S. cerevisiae deletion strains, growth OD, locus YHR079C, strain IRE1, active compounds read low
Out of some 5,500 compounds screened, about 2,000 (36%) were called active. Roughly 18% stayed inconclusive and do not appear here. This is one part of the list.
measured endpoint: normalized growth

INSERT INTO results (molecule, endpoint_result) VALUES
  ('CC(=O)c1ccc(Cl)c(N=Cc2cc(Br)cc(Br)c2O)c1', '0.124 (active)'),
  ('CCOC(=O)c1ccc(Cl)c(N=Cc2cc(Cl)cc(Cl)c2O)c1', '0.238 (active)'),
  ('COc1ccccc1OCC(O)CO (stereo not drawn)', '0.965 (inactive)'),
  ('CO[C@H]1CC(O[C@@H]2/C(C)=C/C[C@@H]3C[C@@H](C[C@]4(CC[C@H](C)[C@@H](C5CCCCC5)O4)O3)OC(=O)[C@@H]3C=C(C)/C(=N\O)[C@H]4OC/C(=C\C=C\[C@@H]2C)[C@]43O)O[C@@H](C)C1O (stereo partly drawn)', '0.831 (active)'),
  ('CCC(C)C(=O)OC1[C@@H]2CC3=C4CC(=O)O[C@@H](c5ccoc5)[C@]4(C)CCC3[C@@](C)(C2=O)[C@@H](CC(=O)OC)C1(C)C (stereo partly drawn)', '0.95 (inactive)'),
  ('CC(=O)c1ccc(Cl)c(N=Cc2cc(Cl)cc(Cl)c2O)c1', '0.148 (active)'),
  ('Cc1c(C)c(C)c(C(=O)c2ccc(N=Cc3cc(Cl)cc(Cl)c3O)cc2)c(C)c1C', '0.338 (active)'),
  ('CC12CCC(=O)C=C1CCC1C2[C@@H](O)CC2(C)C1CC[C@]2(O)C(=O)COP(=O)(O)O (stereo partly drawn)', '0.96 (inactive)');

* * *

Test: chemical genetic growth profiling, strain panel (AID 1159580);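 note: tested at 20 µM; growth read once vehicle control cultures reached saturation at 30 °C; 1 = growth at the plate median or of vehicle wells; lower values mean less growth of the strain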
Conditions: S. cerevisiae deletion strains, growth OD, locus YKL160W, strain elf1
About 2,000 (36%) of roughly 5,500 compounds were called active. Roughly 18% stayed inconclusive and do not appear here. Cut-off read from the data, not from the text of the source: active = normalized growth mostly below about 0.91 (no sharp cut-off); inconclusive = no clear call, values can overlap the other calls; inactive = mostly above about 0.92. Some of the results follow.
Classes used: active, inactive

INSERT INTO assay_data (compound, qualitative_label) VALUES
  ('CC(CCc1ccccc1)NCC(O)c1ccc(O)c(C(N)=O)c1 (stereo unspecified)', 'inactive'),
  ('CN(C)[C@@H]1C(=O)C(C(N)=O)=C(O)[C@@]2(O)C(=O)C3=C(O)c4c(O)cccc4[C@@](C)(O)[C@H]3[C@H](O)[C@@H]12', 'inactive'),
  ('CC(C)CCCC(C)C1CCC2C3=CC[C@H]4C[C@@H](O)CC[C@]4(C)C3CC[C@@]21C (stereo partly specified)', 'inactive'),
  ('N[C@@H](CCC(=O)N[C@@H](CS)C(=O)NCC(=O)O)C(=O)O', 'inactive'),
  ('CC(C)(C)NC[C@H](O)c1ccc(O)c(CO)c1', 'inactive'),
  ('CN(C)CCCN1c2ccccc2Sc2ccc(Cl)cc21', 'active'),
  ('CCN1CCN(C(=O)NC(C(=O)N[C@@H]2C(=O)N3[C@@H]2SC(C)(C)[C@@H]3C(=O)O)c2ccccc2)C(=O)C1=O (stereo partly specified)', 'inactive'),
  ('CC(=O)Oc1ccc(O)cc1', 'inactive'),
  ('CCCSc1ccc2nc(NC(=O)OC)[nH]c2c1', 'inactive'),
  ('NC1=NCCN1CC(=O)O', 'inactive'),
  ('CN(C)[C@@H]1C(=O)C(C(N)=O)=C(O)[C@@]2(O)C(=O)C3=C(O)c4c(O)ccc(Cl)c4[C@@H](O)[C@H]3C[C@@H]12', 'inactive'),
  ('Cc1cc(=O)oc2cc(O)c(O)cc12', 'inactive'),
  ('COc1ccccc1OCC(O)CO (stereo unspecified)', 'inactive'),
  ('CC(=O)c1cc(CC=C(C)C)c(O)c(CC=C(C)C)c1', 'inactive'),
  ('CC(=O)c1ccc(O)c(CC=C(C)C)c1', 'inactive'),
  ('CNNC', 'inactive'),
  ('CC(C)CCCC(C)C1CCC2C3C[C@@H](O)[C@@]4(O)C[C@@H](O)CC[C@]4(C)C3CC[C@]12C (stereo partly specified)', 'inactive'),
  ('COC1CC2CCC(C)C(O)(O2)C(=O)C(=O)N2CCCCC2C(=O)OC(C(C)CC2CCC(O)C(OC)C2)CC(=O)C(C)/C=C(\C)C(O)C(OC)C(=O)C(C)CC(C)/C=C/C=C/C=C/1C (stereo unspecified)', 'active'),
  ('CC(=O)N[C@@H](Cc1c[nH]c2ccccc12)C(N)=O', 'inactive'),
  ('COc1ccc2cc(CCC(C)=O)ccc2c1', 'inactive'),
  ('Cc1nc(N)cc(C[n+]2csc(CCO)c2C)n1', 'inactive'),
  ('CC(C)c1ccc2c(c1)CCC1C(C)(C(N)=O)CCCC21C (stereo unspecified)', 'inactive'),
  ('CCOC(=O)NNc1nncc2ccccc12', 'inactive'),
  ('C[n+]1ccccc1/C=N/O', 'inactive'),
  ('CC(=O)Oc1ccc(C(c2ccc(OC(C)=O)cc2)c2ccccn2)cc1', 'inactive'),
  ('COc1cc(C(C)=O)cc(OC)c1O', 'inactive'),
  ('Nc1ccc(C(=O)O)cc1', 'inactive'),
  ('CC(C)NCC(O)COc1ccc(COCCOC(C)C)cc1 (stereo unspecified)', 'inactive'),
  ('CCOC(=O)[C@H](CCc1ccccc1)N[C@@H](C)C(=O)N1CCC[C@H]1C(=O)O', 'inactive'),
  ('COc1ccc(C2Sc3ccccc3N(CCN(C)C)C(=O)C2OC(C)=O)cc1 (stereo unspecified)', 'inactive'),
  ('CO[C@H]1CC(O[C@@H]2/C(C)=C/C[C@@H]3C[C@@H](C[C@]4(CC[C@H](C)[C@@H](C5CCCCC5)O4)O3)OC(=O)[C@@H]3C=C(C)/C(=N\O)[C@H]4OC/C(=C\C=C\[C@@H]2C)[C@]43O)O[C@@H](C)C1O (stereo partly specified)', 'inactive'),
  ('O=P1(N(CCCl)CCCl)NCCCO1 (stereo unspecified)', 'inactive'),
  ('Cc1cc(=O)oc2cc(O)cc(O)c12', 'inactive'),
  ('CCC(C)[C@H]1O[C@]2(C=C[C@@H]1C)C[C@@H]1C[C@@H](C/C=C(\C)[C@@H](OC3C[C@H](OC)C(O[C@H]4C[C@H](OC)[C@@H](O)[C@H](C)O4)[C@H](C)O3)[C@@H](C)/C=C/C=C3\CO[C@@H]4[C@H](O)C(C)=C[C@@H](C(=O)O1)[C@]34O)O2 (stereo partly specified)', 'inactive'),
  ('CN[C@@H]1[C@H](O)[C@H](NC)[C@H]2O[C@@]3(O)C(=O)C[C@@H](C)O[C@H]3O[C@@H]2[C@H]1O', 'inactive'),
  ('CS(=O)(=O)Nc1ccc([N+](=O)[O-])cc1Oc1ccccc1', 'inactive'),
  ('CCC(C)C(=O)OC1[C@@H]2CC3=C4CC(=O)O[C@@H](c5ccoc5)[C@]4(C)CCC3[C@@](C)(C2=O)[C@@H](CC(=O)OC)C1(C)C (stereo partly specified)', 'inactive'),
  ('CN(C)CCCN1c2ccccc2CCc2ccccc21', 'inactive'),
  ('CC(=O)OCC(=O)[C@@]1(O)[C@H](C)CC2C3CCC4=CC(=O)C=C[C@]4(C)[C@@]3(F)[C@@H](O)C[C@@]21C (stereo partly specified)', 'inactive'),
  ('CC(=O)Oc1ccc(/C=C/c2cc(OC(C)=O)cc(OC(C)=O)c2)cc1', 'inactive'),
  ('CN(C)CCCN1c2ccccc2Sc2ccccc21', 'inactive');
